Provide the reported PF50 of each item.
- System: HeLa
- Measurement protocol: Potentiation factor, ratio of IC50 for methyl methanesulfonate to IC50 for methyl methanesulfonate with 200 nM drug for inhibition of human HeLa B cells

Solved cases (3 shown):
{"Compound structure": "O=C(c1cccc(Cc2n[nH]c(=O)c3ccccc23)c1)N1CCCN(Cc2ccccc2)CC1", "Experimental endpoint": "PF50", "Result": 2.2}
{"Compound structure": "O=C(c1cccc(Cc2n[nH]c(=O)c3ccccc23)c1)N1CCCN(CCO)CC1", "Experimental endpoint": "PF50", "Result": 5.4}
{"Compound structure": "O=C(c1cc(Cc2n[nH]c(=O)c3ccccc23)ccc1F)N1CCN(CCO)CC1", "Experimental endpoint": "PF50", "Result": 3.3}

Attention now shifts to the item below.
Need PF50 of CN1CCN(C(=O)c2cccc(Cc3n[nH]c(=O)c4ccccc34)c2)CC1 , thanks.
1.02

====

- Measurement protocol: Plasma concentration in mouse at 10 mg/kg, po after 60 mins
- Assay type: ADME, organism-based
- Parameters: dose 10 mg/kg, route oral
With a cut-off of 300 ng/mL, any concentration at 1 h strictly below it is called Y; any concentration at 1 h meeting it or above is called N.

# example entries with known answers
{"Compound": "O=C(c1cc(Cc2n[nH]c(=O)c3ccccc23)ccc1F)N1CCN(c2ccccc2)CC1", "Label class": "N"}
{"Compound": "O=C(c1cc(Cc2n[nH]c(=O)c3ccccc23)ccc1F)N1CCN(C(=O)C2CC2)CC1", "Label class": "N"}
{"Compound": "O=C(c1cc(Cc2n[nH]c(=O)c3ccccc23)ccc1F)N1CCN(C(=O)C2CCOC2)CC1 (stereo not given)", "Label class": "Y"}

Given O=C(c1cccc(Cc2n[nH]c(=O)c3ccccc23)c1)N1CCN(c2ncccn2)CC1 , is recorded concentration at 1 h strictly lower than 300 ng/mL?
Y

====

Can you tell me PF50 for the items I'm about to list?
- Tested on: HeLa
- Measurement protocol: Potentiation factor, ratio of IC50 for methyl methanesulfonate to IC50 for methyl methanesulfonate with 200 nM drug for inhibition of human HeLa B cells
Numbers only.

Field: example entries. Status: answers known.
{"Compound structure": "O=C(c1cc(Cc2n[nH]c(=O)c3ccccc23)ccc1F)N1CCN(CC2CC2)CC1", "PF50": 6.5}
{"Compound structure": "O=C(c1cccc(Cc2n[nH]c(=O)c3ccccc23)c1)N1CCNCC1", "PF50": 3.7}
{"Compound structure": "CC(=O)N1CCN(C(=O)c2cc(Cc3n[nH]c(=O)c4ccccc34)ccc2F)CC1", "PF50": 7.97}
{"Compound structure": "O=C(c1cc(Cc2n[nH]c(=O)c3ccccc23)ccc1F)N1CCN(C(=O)N2CCOCC2)CC1", "PF50": 8.4}
{"Compound structure": "O=C(c1cc(Cc2n[nH]c(=O)c3ccccc23)ccc1F)N1CCNCC1", "PF50": 8.6}
{"Compound structure": "CCCN1CCN(C(=O)c2cc(Cc3n[nH]c(=O)c4ccccc34)ccc2F)CC1", "PF50": 7.3}

Below are some compounds; for each one, tell me its PF50.
1. CC(=O)N1CCCN(C(=O)c2cc(Cc3n[nH]c(=O)c4ccccc34)ccc2F)CC1
2. CCC(=O)N1CCN(C(=O)c2cc(Cc3n[nH]c(=O)c4ccccc34)ccc2F)CC1

1: 3.7; 2: 24.4

Data provenance: ChEMBL document CHEMBL1140140
